Recorded values, source PubChem BioAssay (NCI).

test system: M19-MEL melanoma; assay: NCI tumour cell line growth inhibition, 48 h
assay endpoint: TGI (µM)

>>> test_value("CC(=O)O[C@@H]1CC[C@@]2(C)C(=O)C34C[C@@]5(C)C([C@@H](C)CCCC(C)C)CCC5(C)[C@](O)(O3)C(=O)[C@H]4C2C1(C)C (stereo not given in full)")
27.3
>>> test_value("CC(=O)Nc1ccc(C2=N/C(=C\\c3ccc(Cl)cc3)C(=O)O2)cc1")
57.5
>>> test_value("COc1ccc2nc3ccccc3c(NCCN(CCCl)CCCl)c2c1")
3.2
>>> test_value("Cc1ccccc1-n1c(CCl)nc2ccc(Br)cc2c1=O")
19.9

----------
Recorded TGI by entry
system: MOLT-4 leukemia; assay: NCI tumour cell line growth inhibition, 48 h
assay endpoint: TGI (µM)

>>> test_value("Cc1cc(Cl)cc2c1NC(=O)C2(O)C(C(=O)c1ccccc1)c1ccccc1 (configuration not stated)")
70.9
>>> test_value("COc1cc(OC)c(/C=N\\Nc2nc3ccccc3c(=O)n2-c2ccccc2)c(OC)c1")
77.1
>>> test_value("Cc1cc(-c2cc(OC(=O)c3ccccc3)ccc2Cl)cc2nnc(Nc3ccc(OCCN4CCCC4)cc3)nc12")
4.74
>>> test_value("COC(=O)[C@]12CC[C@@H](C)[C@H](C)[C@@H]1C1=CC[C@@H]3[C@@](C)(CC#N)C4=C(C[C@@]3(C)[C@]1(C)CC2)OC[C@]4(C)C=O")
6.89
>>> test_value("CC(=O)Nc1ccc(C2=N/C(=C\\c3ccc(Cl)cc3)C(=O)O2)cc1")
64.1
>>> test_value("COc1cc(N(CCCl)CCCl)ccc1/C=N\\NC(=O)c1cccnc1")
67.4
>>> test_value("Cc1c(Cl)c(C)c(Cl)c(O)c1Cl")
54.5
>>> test_value("CCOc1ccc2c(c1)C(=O)c1c-2n(CCCN=[N+]=[N-])c(=O)c2cc([N+](=O)[O-])ccc12")
20.8
>>> test_value("Cc1cc(C)nc(NS(=O)(=O)c2ccc(NC(=O)COC(=O)c3cccc4c(=O)c5ccccc5[nH]c34)cc2)n1")
84.8
>>> test_value("O=C(CN1CCN(C(=O)c2ccco2)CC1)Nc1ccc(Cl)cc1C(=O)c1ccccc1Cl")
5.44
>>> test_value("O=C(CCN1CCCN(c2cnc3ccccc3n2)CC1)c1csc2ccccc12")
57.9
>>> test_value("COCCn1c2c([n+](Cc3cnccn3)c1C)C(=O)c1ccccc1C2=O")
0.034
>>> test_value("CC1(C)[C@H]2Cc3cc4nc5ccccn5c4cc3[C@@H]1C2")
54.8
>>> test_value("CCCCCCc1cc2cc(C(=O)Nc3cccc(F)c3)c(=N)oc2cc1O")
7.69
>>> test_value("O=C1OCC2=C1C(c1cccc(Cl)c1)c1cc3c(cc1N2CCO)CCC3 (configuration not stated)")
20.3
>>> test_value("O=CC1OC(=O)c2cc(O)c(O)c(O)c2-c2c(cc(O)c(O)c2O)C(=O)OC1C1OC(=O)c2cc(O)c(O)c(O)c2-c2c(O)c(O)c3oc(=O)c4c(c(O)c(O)c5oc(=O)c2c3c54)-c2c(cc(O)c(O)c2O)C(=O)OCC1O (configuration not stated)")
90.1
>>> test_value("CC[C@@H](C)/C=C(C)/C=C/C(=O)c1c(O)c(-c2ccc(O)cc2)cn(OC2CC(=O)CCC(C)OC(=O)CC2O)c1=O (some centres not stated)")
12.1
>>> test_value("Cc1cccc(N=N/C(=N\\NC(=O)c2cc(Cl)ccc2O)c2ccc(N(CCC#N)CCC#N)cc2C)c1")
39.9

----------
test system: CCRF-CEM leukemia; test: NCI tumour cell line growth inhibition, 48 h; in the data active = GI50 below about 0.43 µM; inactive = the rest
Classes used: 1 (active), -1 (inactive)

>>> class_label("Cc1c(C(=O)c2ccccc2)[n+](=O)c2cc(F)c(F)cc2n1[O-]")
-1
>>> class_label("COc1cc2c(cc1OCCCN1CCN(C(=S)SCCC(C#N)(c3ccccc3)c3ccccc3)CC1)N=C[C@@H]1CCCN1C2=O")
1
>>> class_label("CC[C@@H](C)/C=C(C)/C=C/C(=O)c1c(O)c(-c2ccc(O)cc2)cn(OC2CC(=O)CCC(C)OC(=O)CC2O)c1=O (some centres undefined)")
1
>>> class_label("CCN(CC)CC(O)c1cc(-c2ccc(Cl)cc2)nc2c(C)c(Cl)ccc12 (centres undefined)")
-1
>>> class_label("Nc1n[nH]c2ccc([C@@H]3Nc4ccc5cn[nH]c5c4[C@H]4C5CCC(C5)[C@@H]34)cc12 (some centres undefined)")
1
>>> class_label("C[C@]12CC[C@@H]3c4ccc(OC(=O)N(CCCl)CCCl)cc4CC[C@H]3[C@@H]1CC[C@@H]2OP(=O)(O)O")
-1
>>> class_label("COc1ccc(/C=C\\c2cc(OC)c(OC)c(OC)c2)c(NS(=O)(=O)c2ccc(F)cc2)c1O")
1
>>> class_label("Nc1cc(N)c2nc(NCCc3ccc(Cl)c(Cl)c3)cnc2c1")
-1
>>> class_label("COc1c(B(O)O)cccc1-c1nc2c(F)cc3n[nH]c(C)c3c2c2c1CCCC2")
1

----------
test system: EKVX NSCLC; test: NCI tumour cell line growth inhibition, 48 h; in the data active = GI50 below about 0.43 µM; inactive = the rest
Outcome codes: active, inactive

>>> class_label("C#CCNC(=O)CC[C@@H](C)[C@H]1CC[C@H]2[C@@H]3CC[C@@H]4CC(=O)CC[C@]4(C)[C@H]3CC[C@]12C")
"inactive"
>>> class_label("COc1ncc(-c2ccc3nccc(C#CCCCCC(=O)NO)c3c2)cc1NS(=O)(=O)c1ccc(F)cc1F")
"active"
>>> class_label("O=C(CCN1CCCN(c2cnc3ccccc3n2)CC1)c1csc2ccccc12")
"inactive"
>>> class_label("CCCCCCCCCCCCCCCCCC[S+](C)CC (stereo not given)")
"inactive"
>>> class_label("COc1cc(C)[nH]c(=O)c1CNC(=O)c1c(C)n([C@H](C)C2CCN(CC(F)(F)F)CC2)c2ccccc12")
"inactive"

----------
tested on: SF-295 CNS; test: NCI tumour cell line growth inhibition, 48 h
TGI values, listed per item
assay endpoint: TGI (µM)

>>> test_value("C=C(C)COc1cc(NC(=S)OC(C)C)ccc1Cl")
29.3
>>> test_value("CC[As](CC)SCC1OC(OC(C)=O)C(OC(C)=O)C(OC(C)=O)C1OC(C)=O (stereo not drawn)")
35.7
>>> test_value("C/C(=N\\O)c1cccc(Nc2c3ccccc3nc3occc23)c1")
26.7
>>> test_value("CCCCOC(=O)c1c(C)[nH]c(/C=C2\\N=C(c3ccc[nH]3)C=C2OC)c1C")
1.32

----------
// values below are reported TGI
system: SF-268 CNS; assay: NCI tumour cell line growth inhibition, 48 h
assay endpoint: TGI

>>> test_value("COC(=O)C1=CC(=O)[C@@H]2CCCC[C@H]12")
"> 100 µM"
>>> test_value("Cc1cc(-c2cc(OC(=O)c3ccccc3)ccc2Cl)cc2nnc(Nc3ccc(OCCN4CCCC4)cc3)nc12")
"3.75 µM"
>>> test_value("CN(C)C1CN(C(=O)c2cc(-c3ccc4ncnc(N5CCc6cc(F)c(Cl)cc65)c4c3)cnc2N)C1")
"> 100 µM"
>>> test_value("CC#CC#C/C(=C/C=CC(=O)OC)SC")
"> 100 µM"
>>> test_value("COC1C(=O)CCC2(CO2)C1(O)C1(C)OC1CC=C(C)C (centres undefined)")
"> 100 µM"
>>> test_value("CN(C)CC(C)(C)CN1c2ccccc2Sc2ccccc21")
"27.5 µM"
>>> test_value("CC1=C(C(=O)Nc2ccc(C)cc2)C(c2cccc([N+](=O)[O-])c2)C(C(=O)Nc2ccc(C)cc2)=C(C)N1")
"52.2 µM"
>>> test_value("[O-][N+]1=C2CCC/C(=N/O)C2(O)C2CCCCC21N1CCOCC1 (centres undefined)")
"> 100 µM"
>>> test_value("CC(C)C(=O)/C=C/c1c(Cl)cccc1Cl")
"10.5 µM"
>>> test_value("Cn1c(=O)c2c(=O)cc(N)[nH]c2n(C)c1=O")
"> 100 µM"
>>> test_value("CC(C)c1c(O[Si](C(C)C)(C(C)C)C(C)C)cc2c(c1O)CC[C@H]1C(C)(C)CCC[C@]21C")
"> 100 µM"
>>> test_value("Cc1c(C#N)c2nc3ccccc3n2c(=O)/c1=C/Nc1ccc(Cl)cc1")
"> 100 µM"
>>> test_value("COc1cc2c(cc1-c1coc3cc(O)ccc3c1=O)OCO2")
"43.6 µM"
>>> test_value("C=C(Br)COc1ccc2c(C)cc(=O)oc2c1")
"> 100 µM"

----------
system: HCC-2998 colon; experiment: NCI tumour cell line growth inhibition, 48 h
In this section, each of the compounds is paired with its reported TGI.
assay endpoint: TGI

>>> test_value("CC#CC#C/C=C1\\C=CC2(OC=CC2O)O1 (stereo not drawn)")
"> 23.3 µM"
>>> test_value("Fc1ccc(Nc2nc3nonc3nc2Nc2ccc(I)cc2)cc1")
"9.24 µM"
>>> test_value("C=C(C)COc1cc(NC(=S)OC(C)C)ccc1Cl")
"29.5 µM"
